Test system: Amaranthus retroflexus
Assay: Pre-emergence herbicidal action against AMARE
Type: in vivo
Details: 20 g/ha; visual score after 3 weeks vs untreated controls
Property: Pre-emergence action against AMARE; scope: individual compounds

| Compound | Pre-emergence action against AMARE |
| --- | --- |
| Cn1nnnc1NC(=O)c1ccc(C(F)(F)F)c(C(=O)n2cccn2)c1Cl [Example 1-153] | 100% |
| Cn1nnnc1NC(=O)c1ccc(C(F)(F)F)c(C(=O)N(C2CC2)C2CC2)c1Cl [Example 1-144] | 90% |
| CCN(CC)C(=O)c1c(C(F)(F)F)ccc(C(=O)Nc2nnnn2CC)c1C [Example 2-31] | 100% |
| CCOC(=O)[C@@H]1CCCN1C(=O)c1c(C(F)(F)F)ccc(C(=O)Nc2nnnn2C)c1C [Example 1-401] | 100% |
